- measured on: phosphorylated BTK in Ramos cells (Homo sapiens (Human))
- Sequence (Q06187 whole entry): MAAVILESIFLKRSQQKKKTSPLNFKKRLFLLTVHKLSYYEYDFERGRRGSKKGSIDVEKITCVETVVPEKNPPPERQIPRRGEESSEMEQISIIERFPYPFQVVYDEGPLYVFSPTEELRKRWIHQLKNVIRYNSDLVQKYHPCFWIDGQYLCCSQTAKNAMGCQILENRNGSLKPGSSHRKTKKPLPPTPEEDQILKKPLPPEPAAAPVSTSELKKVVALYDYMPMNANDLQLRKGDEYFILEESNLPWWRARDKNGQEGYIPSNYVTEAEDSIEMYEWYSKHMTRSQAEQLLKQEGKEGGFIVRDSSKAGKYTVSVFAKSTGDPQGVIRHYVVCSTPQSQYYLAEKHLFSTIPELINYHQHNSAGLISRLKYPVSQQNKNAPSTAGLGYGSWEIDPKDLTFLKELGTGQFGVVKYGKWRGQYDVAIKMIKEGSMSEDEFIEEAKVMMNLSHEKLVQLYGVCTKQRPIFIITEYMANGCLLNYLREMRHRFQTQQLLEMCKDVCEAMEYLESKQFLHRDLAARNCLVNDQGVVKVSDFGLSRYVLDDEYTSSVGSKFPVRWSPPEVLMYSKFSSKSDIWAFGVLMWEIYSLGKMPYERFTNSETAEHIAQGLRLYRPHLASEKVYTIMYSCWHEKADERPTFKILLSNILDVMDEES
- method description: Determination of phosphorylated BTK in Ramos cells (BTK phospho-Y223 HTRF)
- experimental parameters: anti-human IgM + hydrogen peroxide stimulation
Items are presented alongside their recorded pIC50.
Kindly note that pIC50 refers to -log10 of the concentration in mol/L and answer with the value alone.

C[C@H]1CN(C2COC2)CCN1c1ccc(Nc2cc(-c3ccnc(-n4ccn5c6c(cc5c4=O)CC(C)(C)[C@@H]6O)c3CO)cn(C)c2=O)nc1 [Compound 198] :: 7.92

Q: For the compound [2H]C1(N2CCN(c3ccc(Nc4cc(-c5ccnc(-n6ccn7c8c(cc7c6=O)CC(C)(C)C8)c5CO)cn(C)c4=O)nc3)[C@@H](C)C2)COC1 [Compound 94] , what pIC50 is on record?
A: 8.70

Q: Look up pIC50 for this compound: C[C@H]1CN(C2COC2)CCN1c1ccc(Nc2cc(-c3ccnc(-n4ccn5c(cc6c(F)cccc65)c4=O)c3CO)cn(C)c2=O)nc1 [Compound 53]
A: 7.60
